Every entry's value here was drawn from ChEMBL document CHEMBL1221297.

# System: Trichomonas vaginalis
# experimentDescription: Antimicrobial activity against Trichomonas vaginalis GT3 after 48 hrs
# Type: functional, organism-based
# conditionSummary: GT3, 48 h
Readings of IC50 for the listed compounds
readout: IC50

compound	readoutValue
CCN(CC)CCCC(C)Nc1ccnc2cc(Cl)ccc12 (stereo not given)	30 µM
O=C(NCCNc1ccnc2cc(Cl)ccc12)NC1CCCCC1	66.7 µM
NCCNc1ccnc2cc(Cl)ccc12	23 µM
COc1ccc(NC(=O)NCCNc2ccnc3cc(Cl)ccc23)cc1	21.7 µM
O=C(NCCNc1ccnc2cc(Cl)ccc12)Nc1ccc([N+](=O)[O-])cc1	12 µM
CCOc1ccc(NC(=O)NCCNc2ccnc3cc(Cl)ccc23)cc1	30.1 µM
O=C(NCCNc1ccnc2cc(Cl)ccc12)Nc1ccc(F)cc1	23.2 µM
O=C(NCCNc1ccnc2cc(Cl)ccc12)Nc1ccccc1	46 µM
CCCCOc1ccc(NC(=O)NCCNc2ccnc3cc(Cl)ccc23)cc1	8.44 µM
O=C(NCCNc1ccnc2cc(Cl)ccc12)Nc1ccc(Cl)cc1	9.59 µM

###

# Test system: Entamoeba histolytica
# experimentDescription: Antimicrobial activity against Entamoeba histolytica HM-1:IMSS after 48 hrs
# Format: functional, organism-based
pIC50: −log10 of the molar value.
Readings of pIC50 for the listed compounds

compound	testedSystem	pIC50
CCCCOc1ccc(NC(=O)NCCNc2ccnc3cc(Cl)ccc23)cc1	Entamoeba histolytica	5.44
O=C(NCCNc1ccnc2cc(Cl)ccc12)Nc1ccc([N+](=O)[O-])cc1	Entamoeba histolytica	4.98
O=C(NCCNc1ccnc2cc(Cl)ccc12)Nc1ccc(Cl)cc1	Entamoeba histolytica	5.16
O=C(NCCNc1ccnc2cc(Cl)ccc12)Nc1ccc(F)cc1	Entamoeba histolytica	4.75
NCCNc1ccnc2cc(Cl)ccc12	Entamoeba histolytica	4.84
O=C(NCCNc1ccnc2cc(Cl)ccc12)NC1CCCCC1	Entamoeba histolytica	5.16
CCOc1ccc(NC(=O)NCCNc2ccnc3cc(Cl)ccc23)cc1	Entamoeba histolytica	5.23
CCN(CC)CCCC(C)Nc1ccnc2cc(Cl)ccc12 (stereo not given)	Entamoeba histolytica	5.02
O=C(NCCNc1ccnc2cc(Cl)ccc12)Nc1ccccc1	Entamoeba histolytica	5.27
COc1ccc(NC(=O)NCCNc2ccnc3cc(Cl)ccc23)cc1	Entamoeba histolytica	4.97
